Recorded measurements of fluorescence slope, one per entry
# assaySystem: Muscarinic acetylcholine receptor M4 (Homo sapiens)
# assayInfo: M4-linked GIRK flux change, two-sided – cell-based, HEK293 M4/GIRK, thallium flux, BTC-AM, M4 allosteric agonist project, primary screen (AID 625);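 note: thallium influx through GIRK channels coupled to M4 in HEK293 cells with BTC-AM dye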
# conditionInfo: at 10 µM, actives lie on both sides
measuredAttribute: fluorescence slope

[[record]]
compound = "O=C(Cn1cccc1C(=O)c1ccccc1)NCCN1CCOCC1"
assaysystem = "Muscarinic acetylcholine receptor M4 (Homo sapiens)"
measuredattribute = "fluorescence slope"
testvalue = 0.00604

[[record]]
compound = "N#Cc1ccc(CSc2nnc(-c3cnccn3)o2)cc1"
assaysystem = "Muscarinic acetylcholine receptor M4 (Homo sapiens)"
measuredattribute = "fluorescence slope"
testvalue = 0.00528

[[record]]
compound = "Cc1nc(NC2=NCN(CCc3ccccc3)CN2)nc2c(C)cccc12"
assaysystem = "Muscarinic acetylcholine receptor M4 (Homo sapiens)"
measuredattribute = "fluorescence slope"
testvalue = 0.0048

[[record]]
compound = "O=C1CC(c2ccc(S(=O)(=O)N3CCN(c4ccccc4)CC3)cc2)CN1 (centres undefined)"
assaysystem = "Muscarinic acetylcholine receptor M4 (Homo sapiens)"
measuredattribute = "fluorescence slope"
testvalue = 0.00584

[[record]]
compound = "Cc1cc(/N=C/N(C)C)on1"
assaysystem = "Muscarinic acetylcholine receptor M4 (Homo sapiens)"
measuredattribute = "fluorescence slope"
testvalue = 0.00679

[[record]]
compound = "Cc1cccc(C)c1NC(=O)CC(NCc1ccco1)C(=O)O (centres undefined)"
assaysystem = "Muscarinic acetylcholine receptor M4 (Homo sapiens)"
measuredattribute = "fluorescence slope"
testvalue = 0.00596

[[record]]
compound = "CCCc1cc(=O)n2[nH]c(-c3ccc(Br)cc3)cc2n1"
assaysystem = "Muscarinic acetylcholine receptor M4 (Homo sapiens)"
measuredattribute = "fluorescence slope"
testvalue = 0.00575

[[record]]
compound = "CCOC(=O)C1CCN(C(=O)CSc2cc(=O)n(CC)c3ccccc23)CC1"
assaysystem = "Muscarinic acetylcholine receptor M4 (Homo sapiens)"
measuredattribute = "fluorescence slope"
testvalue = 0.00567

[[record]]
compound = "C=Cn1c(C(=O)O)cc(CC)c1-c1ccccc1"
assaysystem = "Muscarinic acetylcholine receptor M4 (Homo sapiens)"
measuredattribute = "fluorescence slope"
testvalue = 0.00458

[[record]]
compound = "CCCSc1nc2c(c(=O)[nH]c(=O)n2C)n1CCc1ccccc1"
assaysystem = "Muscarinic acetylcholine receptor M4 (Homo sapiens)"
measuredattribute = "fluorescence slope"
testvalue = 0.00465

[[record]]
compound = "COc1ccccc1CN1C(=O)CCC1(C)C(=O)NC1CCCCCC1 (centres undefined)"
assaysystem = "Muscarinic acetylcholine receptor M4 (Homo sapiens)"
measuredattribute = "fluorescence slope"
testvalue = 0.00525

[[record]]
compound = "Cc1c(C(=O)NCc2cccnc2)sc2ncn(CC(=O)N3CCCCC3C)c(=O)c12 (centres undefined)"
assaysystem = "Muscarinic acetylcholine receptor M4 (Homo sapiens)"
measuredattribute = "fluorescence slope"
testvalue = 0.00535

[[record]]
compound = "CCCCN(CCCC)C(=O)CN(C)S(=O)(=O)c1ccc2c(c1)n(C)c(=O)c(=O)n2C"
assaysystem = "Muscarinic acetylcholine receptor M4 (Homo sapiens)"
measuredattribute = "fluorescence slope"
testvalue = 0.00642

[[record]]
compound = "CSc1nnc(-c2nnc(SC)n2-c2ccccc2)n1-c1ccccc1"
assaysystem = "Muscarinic acetylcholine receptor M4 (Homo sapiens)"
measuredattribute = "fluorescence slope"
testvalue = 0.00464

[[record]]
compound = "O=C(CN(c1ccc(F)cc1)S(=O)(=O)c1ccc2c(c1)OCCO2)NCC1CCCO1 (centres undefined)"
assaysystem = "Muscarinic acetylcholine receptor M4 (Homo sapiens)"
measuredattribute = "fluorescence slope"
testvalue = 0.00466

[[record]]
compound = "CC(=O)NCCn1c(SCC(=O)NCC2CCCO2)nc2ccccc2c1=O (centres undefined)"
assaysystem = "Muscarinic acetylcholine receptor M4 (Homo sapiens)"
measuredattribute = "fluorescence slope"
testvalue = 0.00516

[[record]]
compound = "CC(=O)NC1(c2nnnn2CCOC(=O)Nc2ccc(Cl)cc2)CCCCC1"
assaysystem = "Muscarinic acetylcholine receptor M4 (Homo sapiens)"
measuredattribute = "fluorescence slope"
testvalue = 0.0035

[[record]]
compound = "COc1cccc(C(c2nnnn2Cc2ccccc2)N2CCN(C(=O)c3ccco3)CC2)c1OC (centres undefined)"
assaysystem = "Muscarinic acetylcholine receptor M4 (Homo sapiens)"
measuredattribute = "fluorescence slope"
testvalue = 0.00486

[[record]]
compound = "CC(OC(=O)c1cccc(NS(C)(=O)=O)c1)C(=O)Nc1ccc(N2CCOCC2)cc1 (centres undefined)"
assaysystem = "Muscarinic acetylcholine receptor M4 (Homo sapiens)"
measuredattribute = "fluorescence slope"
testvalue = 0.0061

